- experimentalDetails: in vitro
- experimentalSetup: African green monkey, Vero cells
Listed below: CC50 at 48 h values for each entry.
endpointLabel: CC50 at 48 h

| compound | endpointValue |
| --- | --- |
| C=C(C)C1Cc2c(ccc3c2OCC(c2ccc(O)cc2O)C3)O1 (stereo not drawn) [NCGC00347653-02] | > 50 µM |
| CC(=O)O[C@@H]1C[C@]2(C)[C@@]3(CCC4[C@@]5(C)CC[C@H](O[C@@H]6O[C@H](C(=O)O)[C@@H](O)[C@H](OC7OC(CO)C(O)C(O)[C@H]7O[C@@H]7O[C@@H](C)[C@H](O)[C@@H](O)[C@H]7O[C@@H]7OC[C@](O)(CO)[C@H]7O)[C@H]6OC6OC(CO)C(O)C(O)C6O)C(C)(C)C5CC[C@]42C)OC[C@@]12CCC(C)(C)CC23 (stereo partly drawn) [NCGC00381303-01] | > 50 µM |
| C[C@@H]1O[C@@H](O[C@H]2[C@H](O[C@H]3[C@H](O)[C@@H](C(=O)O)O[C@@H](O[C@H]4CC[C@@]5(C)C(CC[C@]6(C)C5CC[C@]57OC[C@@]8(CCC(C)(C)CC85)[C@H](O)C[C@]76C)C4(C)C)[C@@H]3O[C@@H]3O[C@H](CO)[C@@H](O[C@@H]4OC[C@@H](O)[C@H](O)[C@H]4O)[C@H](O)[C@H]3O)O[C@H](CO)[C@H](O)[C@@H]2O)[C@H](O)[C@H](O)[C@H]1O (stereo partly drawn) [NCGC00384492-01] | > 50 µM |

The measured values listed here are drawn from paper PMC8765781.
